target entity: PPARγ (Mus musculus, UniProt P37238)
Sequence (P37238 204-505): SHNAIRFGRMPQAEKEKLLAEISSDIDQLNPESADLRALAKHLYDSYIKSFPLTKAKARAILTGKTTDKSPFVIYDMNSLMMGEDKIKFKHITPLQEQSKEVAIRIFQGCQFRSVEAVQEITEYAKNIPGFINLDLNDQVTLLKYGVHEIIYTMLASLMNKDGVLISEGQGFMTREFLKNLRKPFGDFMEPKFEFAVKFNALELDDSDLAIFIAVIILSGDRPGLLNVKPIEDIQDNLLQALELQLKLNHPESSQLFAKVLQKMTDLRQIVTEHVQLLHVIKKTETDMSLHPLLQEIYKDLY
run description: Radioligand binding assay (scintillation proximity), GST-PPARγ-LBD fusion protein
recorded conditions: radioligand binding (SPA)
reported endpoint: IC50

INSERT INTO assay_data (molecule, target_entity, measurement) VALUES
  ('CCO[C@@H](Cc1ccc(OCCc2nc(C(C)(C)C)oc2C)c2ccccc12)C(=O)O', 'PPARγ (Mus musculus, UniProt P37238)', '153 nM'),
  ('CCCOC(Cc1ccc(OCCc2nc(C3CC3)oc2C)c2ccsc12)C(=O)O (stereo not shown)', 'PPARγ (Mus musculus, UniProt P37238)', '202 nM'),
  ('Cc1oc(C(C)(C)C)nc1CCOc1ccc(CC(OC(C)C)C(=O)O)c2sccc12 (stereo not shown)', 'PPARγ (Mus musculus, UniProt P37238)', '69 nM');

Consider the additional molecule presented here.
Requested read-out: IC50. Entry: CCCOC(Cc1ccc(OCCc2nc(CC(C)(C)C)oc2C)c2ccccc12)C(=O)O (stereo not shown) 162 nM
